For each of the molecules below, state its Plant response rating, Galium.
tested on: galium; test: Test C postemergence; format: in vivo, Galium aparine; conditions: Postemergence, 500 g ai/ha, 10 days, visual 0 to 100 scale (0 no effect, 100 complete control)
Respond numerically, and do not add a unit to the figure.

Sure, the documented Plant response rating, Galium for COc1ccc(-n2cnc(C(C)(C)O)n2)cc1C(=O)N1C[C@H](C)Oc2c(C)cccc21 is 100

Sure, the documented Plant response rating, Galium for COC[C@H]1CN(C(=O)c2cc(-n3cncn3)ccc2OC)c2cccc(Cl)c2O1 is 100

Sure, the documented Plant response rating, Galium for Cc1ccc(-n2cnc(C3(C)COC3)n2)cc1C(=O)N1C[C@H](C)Oc2c(Cl)cccc21 is 100

Sure, the documented Plant response rating, Galium for Cc1cccc2c1O[C@@H](C)CN2C(=O)c1cccc(-n2nccn2)c1 is 0

Sure, the documented Plant response rating, Galium for Cc1ccc(-n2cnc(C3(C)CCC3)n2)cc1C(=O)N1C[C@H](C)Oc2c(Cl)cccc21 is 100

Sure, the documented Plant response rating, Galium for Cc1ccc(-n2cnc(C(C)C)n2)cc1C(=O)N1C[C@H](C)Oc2c(F)cccc21 is 100

Sure, the documented Plant response rating, Galium for COC[C@H]1CN(C(=O)c2cc(-n3cncn3)ccc2C)c2cccc(Cl)c2O1 is 100

Sure, the documented Plant response rating, Galium for CC(C)c1ncn(-c2cc(O)c(O)c(C(=O)N3C[C@H](C)Oc4c(Cl)cccc43)c2)n1 is 0

----------
system: barnyardgrass; test: Test C preemergence; format: in vivo, Echinochloa crusgalli; details: 500 g ai/ha, preemergence; 0 to 100 scale (0 no effect, 100 complete control)
For each of the compounds below, state its Barnyardgrass plant response rating.
Respond numerically, and do not add a unit to the figure.

Sure, the documented Barnyardgrass plant response rating for CC(C)c1ncn(-c2cc(C(=O)N3CC(C(F)(F)F)Oc4c(Cl)cccc43)ccn2)n1 (single isomer, unassigned) [Compound 330] is 100

Sure, the documented Barnyardgrass plant response rating for CCc1cc(C(=O)N2C[C@H](C)Oc3c(Cl)cccc32)cc(-n2cncn2)c1 is 90

Sure, the documented Barnyardgrass plant response rating for Cc1ncn(-c2ccc(C)c(C(=O)N3CC(C(F)(F)F)Oc4c(Cl)cccc43)c2)n1 (stereo not drawn) is 100

Sure, the documented Barnyardgrass plant response rating for CC(C)c1ncn(-c2cc(C(=O)N3CC(C(F)(F)F)Oc4c(Cl)cccc43)ccn2)n1 (racemic) [Compound 329] is 100

Sure, the documented Barnyardgrass plant response rating for CC(C)(C)c1ncn(-c2cc(C(=O)N3CC(C(F)(F)F)Oc4c(Cl)cccc43)ccn2)n1 (stereo not drawn) is 90

Sure, the documented Barnyardgrass plant response rating for CCOC[C@H]1CN(C(=O)c2cc(-n3cnc(C(C)C)n3)ccc2OC)c2cccc(Cl)c2O1 is 100

Sure, the documented Barnyardgrass plant response rating for COC[C@H]1CN(C(=O)c2cc(-n3cnc(C(C)(C)C)n3)cc3c2OCCO3)c2cccc(Cl)c2O1 is 100

Sure, the documented Barnyardgrass plant response rating for CC(C)c1ncn(-c2ccc([S+](C)[O-])c(C(=O)N3C[C@H](C)Oc4c(Cl)cccc43)c2)n1 (stereo partly drawn) is 100

Sure, the documented Barnyardgrass plant response rating for CC(C)c1ncn(-c2cc(C(=O)N3CC(C(F)(F)F)Oc4c(Cl)cccc43)ccn2)n1 (single isomer, unassigned) [Compound 331] is 0

Sure, the documented Barnyardgrass plant response rating for Cc1cccc2c1OC(C(F)(F)F)CN2C(=O)c1cccc(-n2cnc(C(C)C)n2)c1 (racemic) [Compound 301] is 90

Sure, the documented Barnyardgrass plant response rating for Cc1ncc(-c2cccc(C(=O)N3C[C@H](C)Oc4c(Cl)cccc43)c2)o1 is 0

Sure, the documented Barnyardgrass plant response rating for CCc1ncn(-c2cccc(C(=O)N3CC(C(F)(F)F)Oc4c(Cl)cccc43)c2)n1 (stereo not drawn) is 100

Sure, the documented Barnyardgrass plant response rating for CC(C)c1ncn(-c2cc(C(=O)N3C[C@H](C)Oc4c(Cl)cccc43)cnn2)n1 is 100

Sure, the documented Barnyardgrass plant response rating for COCc1ncn(-c2ccc(C)c(C(=O)N3C[C@H](C)Oc4c(Cl)cccc43)c2)n1 is 100

Sure, the documented Barnyardgrass plant response rating for CCOC[C@H]1CN(C(=O)c2cc(-n3cnc(C4CCC4)n3)cc3c2OCCO3)c2cccc(Cl)c2O1 is 70

These measurements were taken from patent US20260262643A1.
